Tested on: Salmonella enterica subsp. enterica serovar Typhimurium ATCC 14028
This listing pairs compounds with measured MIC.

Record excerpt, results attached:
[[record]]
smiles_notation = "CSCC[C@H](NC(=O)[C@H](CCCCN)NC(=O)[C@H](CCCCN)NC(=O)[C@H](CC(C)C)NC(=O)[C@H](C)N)C(=O)N[C@@H](CC(C)C)C(=O)N[C@@H](CCCN=C(N)N)C(=O)N[C@@H](CC(C)C)C(=O)N[C@@H](C)C(=O)N[C@@H](CCCCN)C(=O)N[C@@H](CCCN=C(N)N)C(=O)N[C@@H](CC(C)C)C(=O)N[C@@H](CO)C(=O)O"
target_entity = "Salmonella enterica subsp. enterica serovar Typhimurium ATCC 14028"
metric_name = "MIC"
measured_result = "> 83.8 µM"

[[record]]
smiles_notation = "CC[C@H](C)[C@H](NC(=O)[C@H](Cc1ccc(O)cc1)NC(=O)[C@@H](NC(=O)[C@@H]1CCCN1C(=O)[C@H](CCCN=C(N)N)NC(=O)[C@H](CC(N)=O)NC(=O)[C@H](CC(N)=O)NC(=O)CN)C(C)C)C(=O)N1CCC[C@H]1C(=O)N[C@@H](CCC(N)=O)C(=O)N1CCC[C@H]1C(=O)N[C@@H](CCCN=C(N)N)C(=O)N1CCC[C@H]1C(=O)N[C@@H](Cc1cnc[nH]1)C(=O)N1CCC[C@H]1C(=O)N[C@@H](CCCN=C(N)N)C(=O)N[C@@H](CC(C)C)C(=O)O"
target_entity = "Salmonella enterica subsp. enterica serovar Typhimurium ATCC 14028"
metric_name = "MIC"
measured_result = "> 128 µM"

[[record]]
smiles_notation = "CSCC[C@H](NC(=O)[C@H](CCCN=C(N)N)NC(=O)[C@H](Cc1c[nH]c2ccccc12)NC(=O)[C@H](CCC(N)=O)NC(=O)[C@H](Cc1c[nH]c2ccccc12)NC(=O)[C@H](CCCN=C(N)N)NC(=O)[C@H](CCCN=C(N)N)NC(=O)[C@H](CS)NC(=O)[C@@H](N)CCCCN)C(=O)N[C@@H](CCCCN)C(=O)N[C@@H](CCCCN)C(N)=O"
target_entity = "Salmonella enterica subsp. enterica serovar Typhimurium ATCC 14028"
metric_name = "MIC"
measured_result = "> 128 µM"


Turning now to a further compound:
Lab note: compound CC[C@H](C)[C@H](NC(=O)[C@@H]1CCCN1C(=O)[C@@H]1CCCN1C(=O)[C@H](CCCN=C(N)N)NC(=O)[C@H](Cc1ccccc1)NC(=O)[C@@H](N)CCCN=C(N)N)C(=O)N[C@@H](CCCN=C(N)N)C(=O)N[C@@H](CCCN=C(N)N)C(=O)N1CCC[C@H]1C(=O)N1CCC[C@H]1C(=O)N[C@H](C(=O)N[C@@H](CCCN=C(N)N)C(=O)N1CCC[C@H]1C(=O)N1CCC[C@H]1C(=O)N[C@@H](Cc1ccccc1)C(=O)O)[C@@H](C)CC tested on Salmonella enterica subsp. enterica serovar Typhimurium ATCC 14028; recorded MIC was > 64 µM
